# ASSAY REMARKS: in vitro
# CONDITION DESCRIPTION: human, hepatocytes
Kindly supply the reported hepatocyte CLint at 1 μM values for the records listed here.
Numbers only, in µL/min/1e6 cells.

CCCC[C@H](CO)Nc1nc(N(C)C)ncc1OC [Compound 5]; 80

Next item in the queue.
Which hepatocyte CLint at 1 μM is listed for CCCC[C@H](CO)Nc1nc(NC)ncc1OC [Compound 6] ?
33

###

Kindly supply the reported half-life at 1 μM values for the records listed here.
# ASSAY REMARKS: in vitro
# CONDITION DESCRIPTION: human, plasma

CCCC[C@H](CO)Nc1nc(N(C)C)ncc1OC; > 30 h
CCCC[C@H](CO)Nc1nc(NC2CCCCO2)ncc1OC (stereo partly shown); 1.4 h
CCCC[C@H](CO)Nc1nc(NC)ncc1OC; > 30 h

Next item in the queue.
Which half-life at 1 μM is listed for CCCC[C@H](CO)Nc1nc(NC2CCCO2)ncc1OC (stereo partly shown) ?
< 0.4 h

###

# ASSAY REMARKS: in vitro
# CONDITION DESCRIPTION: human, liver microsomes
MEASUREMENT LABEL: microsomal CLint at 1 μM (µL/min/mg)
Numbers only, in µL/min/mg.

CCCC[C@H](CO)Nc1nc(NC2CCCO2)ncc1OC (stereo partly shown); 115
CCCC[C@H](CO)Nc1nc(N(C)C)ncc1OC; 14

Which microsomal CLint at 1 μM is listed for CCCC[C@H](CO)Nc1nc(NC)ncc1OC ?
18

###

# ASSAY REMARKS: in vitro
# CONDITION DESCRIPTION: simulated gi fluid
Kindly supply the reported half-life values for the records listed here.

CCCC[C@H](CO)Nc1nc(NC)ncc1OC [Compound 6]; > 6 h

Next item in the queue.
Which half-life is listed for CCCC[C@H](CO)Nc1nc(N(C)C)ncc1OC [Compound 5] ?
> 6 h

###

# System: P-glycoprotein (human MDR1)
# ASSAY REMARKS: in vitro
# CONDITION DESCRIPTION: dog, MDCK-MDR1
Kindly supply the reported Papp A→B values for the records listed here.
Give bare numbers, in ×10⁻⁶ cm/s.

Consider the following illustrative entries.
CCCC[C@H](CO)Nc1nc(NC)ncc1OC; 6.8
CCCC[C@H](CO)Nc1nc(N(C)C)ncc1OC; 20

Next item in the queue.
Which Papp A→B is listed for CCCC[C@H](CO)Nc1nc(NC2CCCCO2)ncc1OC (stereo partly drawn) ?
1.8

###

# ASSAY REMARKS: in vitro
# CONDITION DESCRIPTION: rat, plasma
Kindly supply the reported half-life at 1 μM values for the records listed here.

Consider the following illustrative entries.
CCCC[C@H](CO)Nc1nc(NC2CCCCO2)ncc1OC (stereo partly shown); 1.4 h
CCCC[C@H](CO)Nc1nc(N(C)C)ncc1OC; > 30 h
CCCC[C@H](CO)Nc1nc(NC2CCCO2)ncc1OC (stereo partly shown); < 0.4 h

Next item in the queue.
Which half-life at 1 μM is listed for CCCC[C@H](CO)Nc1nc(NC)ncc1OC ?
> 30 h

###

# ASSAY REMARKS: in vitro
# CONDITION DESCRIPTION: simulated gi fluid
MEASUREMENT LABEL: half-life

CCCC[C@H](CO)Nc1nc(N(C)C)ncc1OC; > 6 h

Which half-life is listed for CCCC[C@H](CO)Nc1nc(NC)ncc1OC ?
> 6 h

###

Kindly supply the reported microsomal CLint at 1 μM values for the records listed here.
# ASSAY REMARKS: in vitro
# CONDITION DESCRIPTION: rat, liver microsomes
Give bare numbers, in µL/min/mg.

Consider the following illustrative entries.
CCCC[C@H](CO)Nc1nc(NC2CCCO2)ncc1OC (stereo partly shown); 27
CCCC[C@H](CO)Nc1nc(NC)ncc1OC; 25

Which microsomal CLint at 1 μM is listed for CCCC[C@H](CO)Nc1nc(N(C)C)ncc1OC ?
141

###

Kindly supply the reported hepatocyte CLint at 1 μM values for the records listed here.
# ASSAY REMARKS: in vitro
# CONDITION DESCRIPTION: rat, hepatocytes
One number for each entry, in µL/min/1e6 cells.

CCCC[C@H](CO)Nc1nc(NC)ncc1OC; 120

Next item in the queue.
Which hepatocyte CLint at 1 μM is listed for CCCC[C@H](CO)Nc1nc(N(C)C)ncc1OC ?
280
